Recorded values, source PubChem BioAssay (NCI).

Test system: CCRF-CEM leukemia
measurement-protocol: NCI-60 one-dose screen, 48 h
test-parameters: 10 µM unless noted
This is part of a sample that, as a whole, favours compounds with a hit. Of some 83,000 tested, about 20% had one in any assay. Activity calls are given as the source filed them. Rule for the calls: active = growth percent below 10; inactive = the rest.
Respond using exactly one of the listed classes: Y for active, N for inactive

Assay result, entry `CN(C)c1ccc(/C=C/c2ccnc3c(O)cccc23)cc1` — outcome?
Y

Any idea what this test logged for `O=c1oc2ccc(I)cc2c(=O)n1-c1ccc(I)cc1F` ?
Y

Please indicate how the test categorized O=C1CCC(N2C(=O)c3cccc(NCCCCCCOc4ccc(Nc5nccc(Nc6ccccc6)n5)cc4)c3C2=O)C(=O)N1 (centres undefined) .
N

For `Cc1ccc(C)c(-c2csc(Nc3ccc(C)c(C)c3)n2)c1` , which call appears in the assay record?
Y

Kindly provide the recorded test outcome for the following compound: `COc1ccccc1C1=C(Br)C(=O)c2nc(C)ccc2C1=O`
N

Call for entry `O=C(NC1CCN(Cc2ccccc2)CC1)c1cc2nc(-c3ccc(Cl)s3)cc(C(F)(F)F)n2n1` :
Y

Which result was noted for this compound in the test: CCN1C(=O)N(CC)C2Nn3c(s/c(=C\c4ccccc4F)c3=O)=NC21 (centres undefined)
N

Hey, what did the test say about `COC(=O)[C@@H]1CCCN1C(=O)[C@H]1CCCN1C(=O)[C@@H](Cc1c[nH]c2ccccc12)NC(=S)Nc1cc(C(F)(F)F)cc(C(F)(F)F)c1` ?
N

Per the assay record, what outcome was assigned to CCN1C(=O)N(CC)C2C1NC(=S)N2/N=C/C=C/c1ccccc1OC (centres undefined) ?
N

###

Tested on: A549/ATCC NSCLC
measurement-protocol: NCI-60 one-dose screen, 48 h (100 = growth as untreated, 0 = no growth, -100 = all killed)
test-parameters: 10 µM unless noted
Compounds without any hit were thinned out: in the full panel of roughly 83,000, 20% have a hit.
Could you please report measured growth for the items listed next?
Kindly provide the numeric value in % only, without the unit symbol.

For this compound ( O=CCCCC(O)C=O (centres undefined) ), measured growth is 105

Form field growth, entry `O=c1oc2ccc(Cl)cc2c(=O)n1-c1cc(C(F)(F)F)cc(C(F)(F)F)c1` : 6.11

`O=C(COc1cc(O)c2c(=O)cc(-c3ccccc3)oc2c1)Nc1ccccc1` has a reported growth of 84.6

Entry `COc1ccc(/C=C/C(=O)c2c(C)nc3ccccc3c2/C=C/c2ccccc2)c(OC)c1` , growth reported as 78.5

Reported growth ( `NCCCNc1nc2ccccc2c2c(=O)c3cc(F)ccc3sc12` ) = -29.3

Item: `Cc1cccc(NC(=O)c2sc3nc4c(cc3c2N)CCCC4)c1C` | growth: 26.3

Record `CN1CCN(Cc2ccc(C(=O)Nc3cncc(C#Cc4cnc5cccnn45)c3)cc2C(F)(F)F)CC1` , field growth: 58.5

For reference, reported growth for `CCOC(=O)c1c(Cl)c2c(n1Cc1ccccc1)-c1oncc1CCC2` stands at 43

growth for `CCOc1ccc(-c2nonc2NC(=O)c2cccc(C)c2)cc1OCC` is 65.4

Reported growth ( `Cn1cc([C@@H]2Nc3ccc4[nH]ncc4c3[C@H]3[C@H]4CCC(C4)[C@H]32)c(C(F)(F)F)n1` ) = 41.1

Field growth (entry `Clc1ccc(Nc2scc3[n+]2CCC3)cc1` ) reads 92.4

So for `O=C(Nc1ccsc1C(=O)NC1CCCCC1)c1ccc(F)cc1` , the logged growth turned out to be 103

Recorded result, `O=C(CSc1ncccc1C(=O)O)Nc1ccc(Oc2ccccc2)cc1` , growth: 98

Entry `CCCCN1CCN(c2ccc3nc(-c4ccc5nc(-c6ccc(OCC)cc6)[nH]c5c4)[nH]c3c2)CC1` , growth reported as 86.5
